Cited source for all entries: the supplement of paper PMC11908140

B1: library; numbered along this chain (parent)
chain: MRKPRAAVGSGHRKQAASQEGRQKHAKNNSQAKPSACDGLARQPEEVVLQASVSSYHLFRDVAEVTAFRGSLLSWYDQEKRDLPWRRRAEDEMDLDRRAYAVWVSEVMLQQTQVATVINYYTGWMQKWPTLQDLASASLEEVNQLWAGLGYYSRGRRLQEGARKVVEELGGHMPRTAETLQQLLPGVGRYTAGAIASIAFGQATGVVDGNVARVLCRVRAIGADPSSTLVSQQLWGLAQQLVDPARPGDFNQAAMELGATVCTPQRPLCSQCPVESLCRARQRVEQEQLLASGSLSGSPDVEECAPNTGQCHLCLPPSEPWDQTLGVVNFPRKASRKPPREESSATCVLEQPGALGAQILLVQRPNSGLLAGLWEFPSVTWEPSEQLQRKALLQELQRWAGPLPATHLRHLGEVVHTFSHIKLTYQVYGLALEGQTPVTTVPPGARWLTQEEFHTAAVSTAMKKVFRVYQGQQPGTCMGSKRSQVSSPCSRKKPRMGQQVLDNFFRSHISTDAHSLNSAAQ

# Variants of: B1
# METHOD_SUMMARY: 8OG:A repair function score (normalized; synonymous = 0, nonsense = -1) (normalized log-likelihood score); higher = more repair activity (WT-like);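 note: cells sorted at 72 h after reporter transfection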
# ASSAY_SETUP: with 8OG:A DNA repair reporter (GFP) in HEK-293 MUTYH KO cells
MEASUREMENT_KIND: 8OG:A repair function score
Number only, please.

// worked examples, 8OG:A repair function score included
{"VARIANT_SPEC": "V165G", "MEASUREMENT_KIND": "8OG:A repair function score", "OBSERVED": -0.877}
{"VARIANT_SPEC": "M255A", "MEASUREMENT_KIND": "8OG:A repair function score", "OBSERVED": -0.993}
{"VARIANT_SPEC": "Q181G", "MEASUREMENT_KIND": "8OG:A repair function score", "OBSERVED": -0.165}
{"VARIANT_SPEC": "V114G", "MEASUREMENT_KIND": "8OG:A repair function score", "OBSERVED": -0.449}
{"VARIANT_SPEC": "T130V", "MEASUREMENT_KIND": "8OG:A repair function score", "OBSERVED": -0.178}

Task: Input G236L , output reported 8OG:A repair function score.
Output: -0.0738

Task: Input D61S , output reported 8OG:A repair function score.
Output: -0.013

Task: Input A305M , output reported 8OG:A repair function score.
Output: -0.0121

Task: Input M173K , output reported 8OG:A repair function score.
Output: -0.971
